Reference for the values: the supplement of paper PMC10646978

Tested on: RAW-Dual (murine macrophage reporter line)
Test method notes: NF-kB reporter (SEAP) activity fold change vs agonist alone; higher = enhanced NF-kB activity
Experimental setup: modulator concentration 10 µM; agonist: MPLA […]
A collection of compounds and their measured NF-kB reporter
Form: value (number only, do not type unit).

Check out these entries, answers already filled in.
The reported NF-kB reporter of the compound `CC(C)C1=NN2C(=N)C(=Cc3ccc(-c4ccccc4[N+](=O)[O-])o3)C(=O)N=C2S1` was 0.944

The reported NF-kB reporter of the compound COc1ccc(CC(N)C(=O)NC2C(CO)OC(n3cnc4c(N(C)C)ncnc43)C2O)cc1.Cl.Cl (centres undefined) was 0.936

The reported NF-kB reporter of the compound `COc1ccc(C(=O)Oc2ccc(-c3ccc(C)cc3)cc2)cc1OC` was 1

More entries:
The reported NF-kB reporter of the compound `c1ccc(-n2nnnc2SCc2ccc3c(c2)OCO3)cc1` was 1.46

----------
A collection of compounds and their measured NF-kB reporter
System: RAW-Dual (murine macrophage reporter line)
Test method notes: NF-kB reporter (SEAP) activity fold change vs agonist alone; higher = enhanced NF-kB activity
Experimental setup: modulator concentration 10 µM; agonist: CpG ODN 1826 0.5 ug/mL
Form: value (number only, do not type unit).

Check out these entries, answers already filled in.
The reported NF-kB reporter of the compound `CCOC(=O)C1=C(C)NC(C)=C(C(=O)OCC)C1c1ccc(OC)cc1OC` was 1.01

The reported NF-kB reporter of the compound `Cc1cccc(NC(=O)Cc2nnc(NC(=O)Nc3ccc(F)cc3)s2)c1` was 1.02

The reported NF-kB reporter of the compound `COc1cccc2cc(C(=O)NCc3nn(C4CCCC4)c(=O)c4ccccc34)oc12` was 0.976

The reported NF-kB reporter of the compound NCC(O)CNCCc1ccccc1 (stereo not given) was 0.782

The reported NF-kB reporter of the compound `CCOc1ccccc1OCCCCOc1ccc(I)cc1` was 1.12

The reported NF-kB reporter of the compound `Brc1ccc2ncnc(NCc3cccnc3)c2c1` was 1.22

The reported NF-kB reporter of the compound `CNC(=O)[C@H](Cc1ccccc1)NC(=O)[C@H](CC(C)C)[C@H](CSc1cccs1)C(=O)NO` was 1.23

The reported NF-kB reporter of the compound `N[C@H]1CONC1=O` was 1.08

The reported NF-kB reporter of the compound `O=C(Nc1ccc(-c2cn3ccsc3n2)cc1)C1CCCC1` was 1.14

The reported NF-kB reporter of the compound `CCN1C(C)=C(C(=O)OC)C(c2ccc([N+](=O)[O-])cc2)C(C(=O)OC)=C1C` was 1.17

More entries:
The reported NF-kB reporter of the compound `COc1ccc(N(CC(=O)NCCSCc2ccccc2)S(C)(=O)=O)cc1Cl` was 0.873

The reported NF-kB reporter of the compound `CCCC(=O)Nc1ccc(N2CCOCC2)c(Cl)c1` was 1.09

The reported NF-kB reporter of the compound `Cc1ccsc1C(=CCCN1CCC[C@@H](C(=O)O)C1)c1sccc1C` was 1.06

The reported NF-kB reporter of the compound `CN1CCN(CCCN2c3ccccc3Sc3ccc(Cl)cc32)CC1` was 0.442

The reported NF-kB reporter of the compound O=C(CS(=O)Cc1ccco1)NC/C=C\COc1cc(CN2CCCCC2)ccn1 (stereo not given) was 0.989

The reported NF-kB reporter of the compound COC(=O)C1C(=O)C(=CNCc2ccccc2)C(=O)CC1(C)C (stereo not given) was 1.12

The reported NF-kB reporter of the compound CN(Cc1cnc2nc(N)nc(N)c2n1)c1ccc(C(=O)NC(CCC(=O)O)C(=O)O)cc1 (stereo not given) was 0.987

The reported NF-kB reporter of the compound CC1(C)CCC2(C(=O)O)CCC3(C)C(=CCC4C5(C)CCC(O)C(C)(C)C5CCC43C)C2C1 (stereo not given) was 1.18

The reported NF-kB reporter of the compound `O=[N+]([O-])c1ccc(Nc2ccccc2O)c2nonc12` was 1.74

The reported NF-kB reporter of the compound CC(C)(C)C1(O)CC(C(F)(F)F)=NN1C(=O)c1cccc([N+](=O)[O-])c1 (stereo not given) was 0.62

----------
System: RAW-Dual (murine macrophage reporter line)
Test method notes: IRF reporter (Lucia luciferase) activity fold change vs agonist alone; higher = enhanced IRF activity
Experimental setup: modulator concentration 10 µM; agonist: MPLA […]
Quantity kind: IRF reporter
Form: value (number only, do not type unit).

Check out these entries, answers already filled in.
The reported IRF reporter of the molecule `CCC1(c2cnc[nH]2)Cc2ccccc2C1` was 0.787

The reported IRF reporter of the molecule Cc1cc(=O)n2c(-c3cccc(NC(=O)C4CCCO4)c3)csc2n1 (stereo not drawn) was 0.936

The reported IRF reporter of the molecule `CN(C)c1nc(CNS(C)(=O)=O)nc(N2CCOCC2)n1` was 1.14

The reported IRF reporter of the molecule `Oc1ccccc1C=NNc1nc(-c2ccccc2)cc(-c2ccccc2)n1` was 1.26

The reported IRF reporter of the molecule `Cc1nc(Nc2ncc(C(=O)Nc3c(C)cccc3Cl)s2)cc(N2CCN(CCO)CC2)n1.O` was 0.656

The reported IRF reporter of the molecule CC(=O)OC1(C(C)=O)CCC2C3C=C(C)C4=CC(=O)CCC4(C)C3CCC21C (stereo not drawn) was 0.986

The reported IRF reporter of the molecule COc1ccccc1C1C(C(C)=O)=C(O)C(=O)N1CCN(C)C (stereo not drawn) was 1.25

The reported IRF reporter of the molecule `CCN(CC)CCNC(=O)c1c(C)[nH]c(/C=C2\C(=O)Nc3ccc(F)cc32)c1C.O=C(O)C[C@H](O)C(=O)O` was 0.0544

The reported IRF reporter of the molecule `CCCOc1ccc(C=CC(=O)Nc2ccc(S(=O)(=O)Nc3ncccn3)cc2)cc1OC` was 1.11

The reported IRF reporter of the molecule `O=C(Nc1c(Cl)cncc1Cl)c1ccc(OC(F)F)c(OCC2CC2)c1` was 1.24

More entries:
The reported IRF reporter of the molecule `CNC(=O)[C@H](Cc1c[nH]c2ccccc12)NC(=O)[C@@H](CC(=O)NO)CC(C)C` was 1.12

The reported IRF reporter of the molecule `C=C1C(=O)O[C@@H]2[C@H]3O[C@]3(C)CC/C=C(\C)CC[C@@H]12` was 0.0367

The reported IRF reporter of the molecule `OCCN1CCN(CCCN2c3ccccc3C=Cc3ccccc32)CC1` was 1.49

----------
Test system: RAW-Dual (murine macrophage reporter line)
Test method notes: IRF reporter (Lucia luciferase) activity fold change vs agonist alone; higher = enhanced IRF activity
Experimental setup: modulator concentration 10 µM; agonist: MPLA […]
Quantity kind: IRF reporter
Form: value (number only, do not type unit).

The reported IRF reporter of the compound `CC(=O)Nc1cc2nc3ccccc3nc2cc1NC(C)=O` was 0.988

The reported IRF reporter of the compound `CSc1cc(C=NO)c(SC)s1` was 1.01

The reported IRF reporter of the compound CCCC(=O)Nc1ccc(OCC(O)CNC(C)C)c(C(C)=O)c1.Cl (stereo not drawn) was 0.864

----------
System: RAW-Dual (murine macrophage reporter line)
Test method notes: IRF reporter (Lucia luciferase) activity fold change vs agonist alone; higher = enhanced IRF activity
Experimental setup: modulator concentration 10 µM; agonist: 3'3'-cGAMP 10 ug/mL
Quantity kind: IRF reporter
Form: value (number only, do not type unit).

Check out these entries, answers already filled in.
Tested system RAW-Dual (murine macrophage reporter line); IRF reporter recorded for Cc1cccc(C)c1OCC(C)N.Cl (configuration not stated) was 0.89

Tested system RAW-Dual (murine macrophage reporter line); IRF reporter recorded for `COC(=O)CSc1ccc2nnc(-c3ccc(F)cc3)n2n1` was 0.71

Tested system RAW-Dual (murine macrophage reporter line); IRF reporter recorded for `CC(C)(C)c1nc(-c2cccc(NS(=O)(=O)c3c(F)cccc3F)c2F)c(-c2ccnc(N)n2)s1` was 0.67

Tested system RAW-Dual (murine macrophage reporter line); IRF reporter recorded for `Clc1nc(N2CCOCC2)nc(N(c2ccccc2)c2ccccc2)n1` was 1.02

Tested system RAW-Dual (murine macrophage reporter line); IRF reporter recorded for `CCOc1ccc2nc(S(N)(=O)=O)sc2c1` was 0.855

Tested system RAW-Dual (murine macrophage reporter line); IRF reporter recorded for `O=C(Oc1ccc2ccccc2c1)c1ccccc1` was 0.906

Tested system RAW-Dual (murine macrophage reporter line); IRF reporter recorded for `CCS(=O)(=O)N1CCN(c2ccc(Nc3ncc(C(N)=O)c(NC4CC4)n3)cc2)CC1.Cl` was 0.0973

Tested system RAW-Dual (murine macrophage reporter line); IRF reporter recorded for CCCC1CCC(c2ccc(C(=O)NNC(=O)c3ccc(C4CCC(CCC)CC4)cc3)cc2)CC1 (configuration not stated) was 0.898

More entries:
Tested system RAW-Dual (murine macrophage reporter line); IRF reporter recorded for `O=c1cc2c(nn1CC1CCN(CC3(O)CCOCC3)CC1)CCCC2` was 1.08

Tested system RAW-Dual (murine macrophage reporter line); IRF reporter recorded for `Cc1cc(OC2CN(C(=O)Cc3noc4ccccc34)C2)cc(=O)n1C1CC1` was 0.919

Tested system RAW-Dual (murine macrophage reporter line); IRF reporter recorded for `Nc1nc(N)nc(-c2cc(Cl)ccc2Cl)n1` was 0.946

Tested system RAW-Dual (murine macrophage reporter line); IRF reporter recorded for CC(Oc1ccc(Cl)cc1)C(=O)NCc1cccnc1 (configuration not stated) was 1.05

Tested system RAW-Dual (murine macrophage reporter line); IRF reporter recorded for `NC(=O)c1ccccc1O` was 0.945

Tested system RAW-Dual (murine macrophage reporter line); IRF reporter recorded for `COc1ccc(CNCc2ccc3ccccc3c2)c(OC)c1` was 0.644

Tested system RAW-Dual (murine macrophage reporter line); IRF reporter recorded for `CCOc1cc([C@@H](CS(C)(=O)=O)N2C(=O)c3cccc(NC(C)=O)c3C2=O)ccc1OC` was 1.01

Tested system RAW-Dual (murine macrophage reporter line); IRF reporter recorded for O=C1OC(=O)C2C3CCC(O3)C12 (configuration not stated) was 1.77
